Tested on: Madurella mycetomatis MM55
Protocol Summary: percent growth relative to solvent control; higher = less inhibition, active = 20 or less
Run Parameters: 100 µM; 7 days
Would you kindly list percent growth for each of these molecules?
Answers are plain numbers, in %.

Recorded percent growth, per entry:
O=C(C1CCN(c2nnc(-n3cccc3)s2)CC1)N1CCC(Cc2ccccc2)CC1 ... 108
Cc1[nH]c2cc(F)cc(F)c2c(=O)c1-c1ccc(Oc2ccc(OC(F)(F)F)cc2)cc1 ... 95.7
CC(=O)NCC1CN(c2ccc(-c3ccc(CNCc4cn[nH]n4)cc3)c(F)c2)C(=O)O1 (centres undefined) ... 125
NCCC(O)C(=O)N[C@@H]1C[C@H](N)[C@@H](OC2O[C@H](CN)[C@@H](O)[C@H](O)[C@H]2O)[C@H](O)C1OC1O[C@H](CO)[C@@H](O)[C@H](N)[C@H]1O (some centres undefined) ... 102
CS(=O)(=O)N1CCC(Cn2nc(Cc3cccc4ccccc34)c3c(N)ncnc32)CC1 ... 92.8
Cc1cccc(Cn2ccc(NC(=O)c3ccc4c(c3)OCO4)n2)c1 ... -0.936

I have 3 molecules here; please give me percent growth for each one.
1. c1ccc(-c2cc(N3CCCCC3)c3ccccc3n2)nc1
2. Cc1cnc(CCNC(=O)c2cc(-c3ccc(Cl)cc3)cs2)[nH]1
3. Nc1nc2ccc(-c3cncc(Oc4ccc(F)cc4)c3)cc2[nH]1

Reply:
1. 0.766
2. 94.3
3. -2.72

====

Tested on: Madurella mycetomatis MM55
Protocol Summary: IC90; higher = less potent
Run Parameters: 7 days
Would you kindly list IC90 for each of these molecules?
Give bare numbers, in µM.

Recorded IC90, per entry:
COc1cccc(-c2cc3c(Nc4cccnc4)nccc3[nH]2)c1 ... 92.5
Brc1cncc(-c2cc(NCCCn3ccnc3)nc(-c3ccccc3)n2)c1 ... 90.8
COc1ccc(CCN2CCC(NCc3cccc(N(C)C)c3)CC2)cc1 ... 51.7
CC1=NN(c2nc3ccccc3s2)C(=O)C1Cc1cccc2ccccc12 (stereo not drawn) ... 93
CCCn1nnc(NC(=O)COc2ccc(C3CCCCC3)cc2)n1 ... 94.3
Cc1cc(C)n(-c2ccc(NC(=O)C3CCN(Cc4cnc(C)s4)CC3)cc2)n1 ... 92.5
COc1ccc(-c2cnc3cnc(-c4cccc(OC(C)C)c4)cn23)cc1 ... 95
O=C1COCc2ccc(Br)cc2N1Cc1ccc(C(F)(F)F)cc1 ... 95.4

I have 5 molecules here; please give me IC90 for each one.
1. COc1ccc(OC(C)C(=O)Nc2ccc(Cl)cc2C)cc1 (stereo not drawn)
2. CC(=O)Nc1ccc(-c2noc(CC3CCCN(Cc4cccc(F)c4C)C3)n2)cc1 (stereo not drawn)
3. CN1CCCC1CCO[C@](C)(c1ccccc1)c1ccc(Cl)cc1 (stereo partly drawn)
4. Nc1nccc2ccc(-c3ccc4nccn4c3)cc12
5. CCOC(=O)c1c(NC(=O)c2c(F)c(F)c(F)c(F)c2F)sc(C(N)=O)c1C

Reply:
54.5
94.5
18.3
89.2
92.8

I have 3 molecules here; please give me IC90 for each one.
1. CC(C)(C(=O)Nc1ccc(F)cc1)n1cc(-c2ccccc2F)cn1
2. Cc1nn(C(=O)Nc2cccc(C(F)(F)F)c2)c(C)c1Sc1ncccn1
3. COc1cccc(-n2nnnc2S(=O)(=O)Cc2ccccc2)c1

Reply:
[96.1, 94, 90]

====

Would you kindly list IC50 for each of these compounds?
System: Madurella mycetomatis MM55
Run Parameters: 7 days
One number for each entry, in µM.

OCc1ccc(-c2cncc(Nc3cccc(Cl)c3)c2)cc1 ... 63.6
COc1ccc(C(=N)N)cc1-c1cn(-c2ccc(C(=N)N)cc2)nn1 ... 56.6
N=C(N)Nc1ccc(-c2ccc(-c3ccc(N=C(N)N)c(Cl)c3)o2)cc1Cl ... 61.6

I have 5 compounds here; please give me IC50 for each one.
1. CCCn1nnc(NC(=O)COc2ccc(C3CCCCC3)cc2)n1
2. COc1cccc(-c2nc3c(N4CCCC4)cccc3n2CC2CCCN2)n1 (stereo not drawn)
3. O=C(Nc1ccccc1)c1ccc(-c2cc3ccncc3cc2OC2CCNCC2)s1
4. COc1cccc(-n2nnnc2S(C)(=O)=O)c1
5. CCCCc1ccc(C(=O)Nc2nccc3ccccc23)nc1

Reply:
1. 65.8
2. 37.4
3. 54.3
4. 59.9
5. 54.6

I have 5 compounds here; please give me IC50 for each one.
1. CCOc1ccc(-c2nc(CNCCc3ccc(F)cc3)cs2)cc1
2. c1ccc(-c2cc(N3CCCCC3)c3ccccc3n2)nc1
3. CNCCC(Oc1ccc(C(F)(F)F)cc1)c1ccccc1 (stereo not drawn)
4. CN1CCN(c2cc(-c3ccc(F)cc3)nc(-c3ccncc3)n2)CC1
5. Cc1nc(-c2cccc(NCc3ccccc3)c2)[nH]c1C

Reply:
1: 10.4; 2: 60; 3: 10.1; 4: 37.1; 5: 64

I have 3 compounds here; please give me IC50 for each one.
1. c1ccc2c(c1)CN(CC1CC1)CC1(CCN(Cc3c[nH]c4cnccc34)CC1)O2
2. O=C(Nc1cccc(Cl)c1)c1cnc(N2CCN(c3ccncc3)CC2)c(Cl)c1
3. c1ccc(Oc2ccc(-c3cc(CN4CCOCC4)[nH]n3)cc2)cc1

Reply:
[62.9, 9.3, 65.4]

I have 7 compounds here; please give me IC50 for each one.
1. CN1CCCC1CCO[C@](C)(c1ccccc1)c1ccc(Cl)cc1 (stereo partly drawn)
2. O=C(Nc1ccc(N2CCNCC2)cc1)c1ccn2ncc(-c3cccc(Cl)c3)c2n1
3. CCCCCCCCCCCCCCCCOP(=O)([O-])OCC[N+](C)(C)C
4. CCc1c(C)nc(-n2nc(C)cc2NC(=O)c2ccccc2SC)[nH]c1=O
5. Clc1ccc(Cl)c(CO[C@H]2CCCC[C@@H]2n2ccnc2)c1
6. COc1ccccc1OCCCCn1c(C2CC2)nc2ccccc21
7. O=C1N(Cc2cc3ccccc3s2)CC2CN(Cc3ccccc3)CCN12 (stereo not drawn)

Reply:
9.85
2.95
59.3
6.75
14.2
52.1
57.6

====

Tested on: Madurella mycetomatis MM55
Protocol Summary: percent growth relative to solvent control; higher = less inhibition, active = 20 or less
Run Parameters: 100 µM; 7 days
Would you kindly list percent growth for each of these compounds?
One number for each entry, in %.

Recorded percent growth, per entry:
CCc1ccc(S(=O)(=O)Nc2cc(CN3CCN(CCC(C)C)CC3)ccc2C)cc1 ... -0.809
COc1ccc(N(CCc2cccc(C)n2)C(=O)C2CCCCC2)cc1 ... 28
c1ccc(Oc2ccc(-c3cc(C4CCOCC4)[nH]n3)cc2)cc1 ... 4.02
COc1ccc2nc(C)cc(OCC(=O)NCc3ccccc3)c2c1 ... 83.4
O[C@@H](c1cc(C(F)(F)F)nc2c(C(F)(F)F)cccc12)[C@H]1CCCCN1 ... -1.36
CC(C)(CN)c1nc(-c2ccc(Cl)c(O)c2)c(-c2ccnc(N)n2)[nH]1 ... 88.2

I have 4 compounds here; please give me percent growth for each one.
1. O=C(NC1CCCCC1)N1CCN(Cc2ccc3c(c2)OCO3)CC1
2. O=C(Nc1cccc(-c2ccc(NCCCN3CCCC3)nc2)c1)c1ccccc1
3. Cc1ccccc1C(=O)N1N=C(Nc2ccccc2)SC1(C)C
4. CNC1C(OC2C(OC3C(O)C(O)C(NC(=N)N)C(O)C3NC(=N)N)OC(C)C2(O)C=O)OC(CO)C(O)C1O (stereo not given)

Reply:
1. 74.6
2. -1.11
3. 93.7
4. 119

====

Tested on: Madurella mycetomatis MM55
Protocol Summary: percent growth relative to solvent control; higher = less inhibition, active = 20 or less
Run Parameters: 100 µM; 7 days
API: response.call in yes (1) = active, no (0) = inactive

CNC(=O)c1nn(C)c2c1C(C)(C)Cc1cnc(Nc3ccc(N4CCN(C)CC4)cc3)nc1-2 ... yes (1)
CCCc1ccc(S(=O)(=O)Nc2ccc(CN3CCN(CC4CC4)CC3)cc2)cc1 ... yes (1)
C[C@]1(O)C[C@@H](c2nc(-c3ccc4ccc(-c5ccccc5)nc4c3)c3c(N)nccn32)C1 ... no (0)

Ask: Called result for `Cc1cc(Cl)c(S(=O)(=O)N2CCCC2)cc1OCC(=O)NC1CCCCC1`
Reply: no (0)

Ask: Called result for `Nc1ncnc2c1c(-c1cnc3ccccc3c1)nn2CC1CCNCC1`
Reply: no (0)

Ask: Called result for `O=C(Nc1ccc(N2CCNCC2)nc1)c1oc(-c2ccccc2)nc1C(F)(F)F`
Reply: yes (1)

Ask: Called result for CCc1ccccc1-n1c(C)cn2c3c(=O)n(C(C(=O)OC)C(C)C)c(=O)n(C)c3nc12 (centres undefined)
Reply: no (0)

Ask: Called result for `CC[C@@H]([C@H](C)O)n1ncn(-c2ccc(N3CCN(c4ccc(OC[C@@H]5CO[C@@](Cn6cncn6)(c6ccc(F)cc6F)C5)cc4)CC3)cc2)c1=O`
Reply: yes (1)

Ask: Called result for Cc1noc(C)c1C(=O)N1CCCC(c2[nH]c3c(C)cccc3c2-c2ccncc2)C1 (centres undefined)
Reply: no (0)
